target: recombinant human VAP-1 (Homo sapiens, UniProt Q16853); construct: purchased R&D systems; test: Activity evaluation on recombinant human VAP-1 (Amplex Red/HRP-coupled hydrogen peroxide assay, benzylamine substrate); type: biochemical; details: recombinant human VAP-1, benzylamine substrate; read-out: Inhibitory Activity (IC50, nM) human VAP-1
Sequence (Q16853 whole entry): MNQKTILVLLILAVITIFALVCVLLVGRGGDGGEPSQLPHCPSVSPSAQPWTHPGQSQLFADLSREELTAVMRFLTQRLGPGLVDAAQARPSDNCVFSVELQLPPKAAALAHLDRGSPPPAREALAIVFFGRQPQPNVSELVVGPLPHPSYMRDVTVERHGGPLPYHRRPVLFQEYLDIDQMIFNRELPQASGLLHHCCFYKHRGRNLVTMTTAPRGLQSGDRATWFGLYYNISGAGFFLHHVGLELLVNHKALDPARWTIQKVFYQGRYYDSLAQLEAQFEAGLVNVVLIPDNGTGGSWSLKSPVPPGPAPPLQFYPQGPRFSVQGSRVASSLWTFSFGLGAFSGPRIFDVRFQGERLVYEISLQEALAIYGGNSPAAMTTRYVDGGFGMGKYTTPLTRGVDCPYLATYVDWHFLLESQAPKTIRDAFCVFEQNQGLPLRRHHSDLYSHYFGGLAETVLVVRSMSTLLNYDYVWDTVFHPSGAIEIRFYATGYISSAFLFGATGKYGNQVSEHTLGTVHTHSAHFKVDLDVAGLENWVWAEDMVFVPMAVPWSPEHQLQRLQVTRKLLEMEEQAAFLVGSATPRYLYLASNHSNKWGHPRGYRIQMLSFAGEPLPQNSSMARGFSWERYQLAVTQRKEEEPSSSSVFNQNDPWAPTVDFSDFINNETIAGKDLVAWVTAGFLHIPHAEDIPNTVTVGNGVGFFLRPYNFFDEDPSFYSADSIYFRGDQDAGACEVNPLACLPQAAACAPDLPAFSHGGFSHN
Where a name gives a salt, the structure may show the parent alone.
measured-endpoint: IC50 (nM)

# molecule, measured-endpoint, test-result
measured = [
    ("Cc1cc(-c2cnn(C(F)F)c2)cnc1-n1cnn(CC(CN)=C(F)F)c1=O [Example 251, Trifluoroacetate]", "IC50", 1.5),
    ("CN1C(=O)CCc2cc(-c3ccc4sc(Cn5cnn(CC(CN)=C(F)F)c5=O)cc4c3)ccc21 [Example 211, Trifluoroacetate]", "IC50", 1.1),
]

(a) CCn1cc(-c2cccc(-c3csc(Cn4cnn(CC(CN)=C(F)F)c4=O)c3)c2)cn1 [Example 289, Trifluoroacetate]
(b) Cc1c(-c2cnn(C(C)C)c2)cccc1-n1cnn(CC(CN)=C(F)F)c1=O [Example 262, Trifluoroacetate]
Hey, which is lower on measured IC50, a or b ? // caller expects the label of the chosen entry
a

---

Reported IC50 values for a set of molecules
target: recombinant human MAO-A (monoamine oxidase-A) (Homo sapiens, UniProt P21397); construct: purchased Sigma-Aldrich; assay: Activity evaluation on recombinant human MAO-A (Amplex Red/HRP-coupled assay, 0.5 mM tyramine substrate); format: biochemical; settings: 0.5 mM tyramine, read-out: Inhibitory Activity (IC50, nM) MAO-A
Sequence (P21397 whole entry): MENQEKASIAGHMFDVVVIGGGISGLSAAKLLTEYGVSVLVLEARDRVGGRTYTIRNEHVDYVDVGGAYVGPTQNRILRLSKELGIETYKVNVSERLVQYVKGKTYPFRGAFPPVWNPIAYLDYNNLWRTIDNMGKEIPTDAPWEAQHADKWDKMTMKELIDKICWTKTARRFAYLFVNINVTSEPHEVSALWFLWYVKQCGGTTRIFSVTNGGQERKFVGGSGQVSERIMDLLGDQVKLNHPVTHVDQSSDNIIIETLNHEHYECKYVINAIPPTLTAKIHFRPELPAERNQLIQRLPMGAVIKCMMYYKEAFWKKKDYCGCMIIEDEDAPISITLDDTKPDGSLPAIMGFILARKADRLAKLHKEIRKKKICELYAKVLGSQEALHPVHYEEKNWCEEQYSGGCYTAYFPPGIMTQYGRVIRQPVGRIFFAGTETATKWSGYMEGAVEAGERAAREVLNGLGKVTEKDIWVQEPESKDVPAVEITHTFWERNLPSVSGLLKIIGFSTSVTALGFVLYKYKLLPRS
Counter-ions that a name gives are not always drawn.

Known results for molecules:
# molecule, measured-endpoint, test-result
records = [
    ("Cn1c(-c2ccc(Cn3cnn(CC(CN)=C(F)F)c3=O)s2)cnc1Cl [Example 120, Trifluoroacetate]", "IC50", "> 100000 nM"),
    ("CN1C(=O)CCc2cc(-c3cnc(-n4cnn(CC(CN)=C(F)F)c4=O)c(F)c3)ccc21 [Example 87, Trifluoroacetate]", "IC50", "> 100000 nM"),
    ("CCn1cc(-c2cnc(-n3cnn(CC(CN)=C(F)F)c3=O)c(C)c2)cn1 [Example 75, Trifluoroacetate]", "IC50", "> 100000 nM"),
    ("NCC(Cn1ncn(-c2ccc(F)cc2)c1=O)=C(F)F [Example 1, Trifluoroacetate]", "IC50", "> 100000 nM"),
    ("Cc1cc(-n2cnn(CC(CN)=C(F)F)c2=O)cnc1-c1ccc2c(c1)CCC(=O)N2C [Example 81, Trifluoroacetate]", "IC50", "> 100000 nM"),
    ("CN(C)c1ccc(-c2ccc(-n3cnn(CC(CN)=C(F)F)c3=O)c(F)c2)cn1 [Example 34, Trifluoroacetate]", "IC50", "27000 nM"),
]

Give the reported value of IC50 for this record: NCC(Cn1ncn(-c2cc(-c3ccc(C(F)(F)F)nc3)ccn2)c1=O)=C(F)F [Example 56, Trifluoroacetate]
> 100000 nM

---

Target: recombinant human MAO-B (monoamine oxidase-B) (Homo sapiens)
Construct: purchased Sigma-Aldrich
Sequence (P27338 1-520): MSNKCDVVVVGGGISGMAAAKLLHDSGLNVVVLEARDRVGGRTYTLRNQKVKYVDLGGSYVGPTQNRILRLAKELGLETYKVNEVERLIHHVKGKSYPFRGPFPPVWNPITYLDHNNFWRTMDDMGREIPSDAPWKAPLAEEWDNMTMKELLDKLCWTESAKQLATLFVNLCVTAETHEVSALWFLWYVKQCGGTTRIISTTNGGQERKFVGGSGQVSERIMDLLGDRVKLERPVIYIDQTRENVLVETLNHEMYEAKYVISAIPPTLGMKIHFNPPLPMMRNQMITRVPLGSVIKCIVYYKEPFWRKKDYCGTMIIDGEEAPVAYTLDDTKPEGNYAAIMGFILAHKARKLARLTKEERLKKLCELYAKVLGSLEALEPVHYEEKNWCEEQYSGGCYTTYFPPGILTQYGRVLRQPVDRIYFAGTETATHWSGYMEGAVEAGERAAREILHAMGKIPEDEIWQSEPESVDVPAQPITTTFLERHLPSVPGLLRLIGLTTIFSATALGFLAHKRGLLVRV
Experiment: Activity evaluation on recombinant human MAO-B (Amplex Red/HRP-coupled assay, 1 mM benzylamine substrate)
Assay type: biochemical
Conditions: 1 mM benzylamine substrate, read-out: Inhibitory Activity (IC50, nM) MAO-B
Structures can show the parent of a compound that is named as a salt.
measured-endpoint: IC50 (nM)

# molecule, tested-on, IC50, nM
rows = [
    ("CCn1cc(-c2cccc(-c3ccc(Cn4cnn(CC(CN)=C(F)F)c4=O)s3)c2)cn1 [Example 287, Trifluoroacetate]", "recombinant human MAO-B (monoamine oxidase-B) (Homo sapiens)", 12100),
    ("CN(C)c1ccc(-c2ccc3sc(Cn4cnn(CC(CN)=C(F)F)c4=O)cc3c2)cn1 [Example 208, Trifluoroacetate]", "recombinant human MAO-B (monoamine oxidase-B) (Homo sapiens)", 42400),
]

(I) Cc1cc(-c2ccc3nonc3c2)cnc1-n1cnn(CC(CN)=C(F)F)c1=O [Example 227, Trifluoroacetate]
(II) CC(C)n1cc(-c2csc(Cn3cnn(CC(CN)=C(F)F)c3=O)c2)cn1 [Example 195, Trifluoroacetate]
(III) Cc1cc(C#Cc2cnn(C)c2)cnc1-n1cnn(CC(CN)=C(F)F)c1=O [Example 240, trifluoroacetate]
(IV) CCn1cc(-c2ccc(-c3ccc(Cn4cnn(CC(CN)=C(F)F)c4=O)s3)cc2)cn1 [Example 286, Trifluoroacetate]
Number of molecules to sort: 4. Sort criterion: IC50, ascending. Return the labels ranked in the requested order, please.
I, IV, III, II
(I: 340 nM, IV: 3230 nM, III: 15000 nM, II: 38000 nM)

---

biological target: recombinant human DAO (diamine oxidase) (Homo sapiens); construct: purchased R&D systems; test: Activity evaluation on recombinant human DAO (Amplex Red/HRP-coupled assay, 1 mM putrescine substrate); assay type: biochemical; conditions: 1 mM putrescine substrate, read-out: Inhibitory Activity (IC50, nM) DAO
Sequence (P19801 20-751): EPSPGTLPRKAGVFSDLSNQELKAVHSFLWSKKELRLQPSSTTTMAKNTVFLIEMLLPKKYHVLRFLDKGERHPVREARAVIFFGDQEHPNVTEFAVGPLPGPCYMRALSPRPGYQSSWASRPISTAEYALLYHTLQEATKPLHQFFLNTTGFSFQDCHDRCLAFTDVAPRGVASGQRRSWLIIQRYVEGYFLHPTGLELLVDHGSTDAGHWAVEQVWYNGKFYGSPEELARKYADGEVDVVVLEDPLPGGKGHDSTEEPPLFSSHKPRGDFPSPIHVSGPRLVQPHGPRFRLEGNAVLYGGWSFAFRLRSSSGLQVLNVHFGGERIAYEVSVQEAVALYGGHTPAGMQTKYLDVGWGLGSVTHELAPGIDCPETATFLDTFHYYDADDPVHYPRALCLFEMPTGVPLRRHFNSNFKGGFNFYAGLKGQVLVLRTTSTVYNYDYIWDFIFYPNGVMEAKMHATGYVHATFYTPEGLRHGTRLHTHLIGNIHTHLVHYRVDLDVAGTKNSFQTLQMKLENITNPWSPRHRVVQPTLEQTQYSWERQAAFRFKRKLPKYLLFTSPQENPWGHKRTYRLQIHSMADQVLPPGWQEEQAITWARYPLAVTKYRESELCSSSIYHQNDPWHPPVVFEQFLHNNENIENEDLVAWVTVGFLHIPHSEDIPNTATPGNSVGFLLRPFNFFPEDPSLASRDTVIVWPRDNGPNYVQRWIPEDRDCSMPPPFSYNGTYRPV
Counter-ions that a name gives are not always drawn.
measured-endpoint: IC50 (nM)

# compound, unit-annotation, IC50
measured = [
    ("Cc1cc(-c2ccc(N3CCOCC3)cc2)cnc1-n1cnn(CC(CN)=C(F)F)c1=O [Example 237, Trifluoroacetate]", "nM", 6100),
    ("CCn1cc(-c2cccc(-c3csc(Cn4cnn(CC(CN)=C(F)F)c4=O)c3)c2)cn1 [Example 289, Trifluoroacetate]", "nM", 14500),
    ("NCC(Cn1ncn(Cc2sc(-c3ccc4c(c3)OCO4)cc2F)c1=O)=C(F)F [Example 300, Trifluoroacetate]", "nM", 25300),
    ("NCC(Cn1ncn(Cc2cc3cc(-c4ccc(N5CCNCC5)cc4)ccc3s2)c1=O)=C(F)F [Example 206, Ditrifluoroacetate]", "nM", 639),
    ("CN1C(=O)CCc2cc(-c3ccc4sc(Cn5cnn(CC(CN)=C(F)F)c5=O)cc4c3)ccc21 [Example 211, Trifluoroacetate]", "nM", 1860),
    ("CCn1cc(-c2cc(F)c(Cn3cnn(CC(CN)=C(F)F)c3=O)s2)cn1 [Example 302, Trifluoroacetate]", "nM", 19500),
]

(A) Cc1cc(-c2cnn(C(C)C)c2)cnc1-n1cnn(CC(CN)=C(F)F)c1=O [Example 252, Trifluoroacetate]
(B) NCC(Cn1ncn(-c2cccc(-c3ccc(N4CCNCC4)nc3)n2)c1=O)=C(F)F [Example 213, Ditrifluoroacetate]
Task for the reader: decide whether A or B has the larger IC50. Lab log: write the label of the selected item as the result.
A
(A: 17000 nM, B: 1300 nM)

(a) Cc1cc(-c2cnn(C(F)F)c2)cnc1-n1cnn(CC(CN)=C(F)F)c1=O [Example 251, Trifluoroacetate]
(b) CCn1cc(-c2cccc(Cn3cnn(CC(CN)=C(F)F)c3=O)c2)ccc1=O [Example 277, Trifluoroacetate]
I'd appreciate it if you could identify which of a and b has the greater IC50. Identify your selection by its label.
a

---

molecular target: recombinant human DAO (diamine oxidase) (Homo sapiens); construct: purchased R&D systems; test: Activity evaluation on recombinant human DAO (Amplex Red/HRP-coupled assay, 1 mM putrescine substrate); format: biochemical; conditions: 1 mM putrescine substrate, read-out: Inhibitory Activity (IC50, nM) DAO
Structures can show the parent of a compound that is named as a salt.
measured-endpoint: IC50 (nM)

# molecule, test-result
records = [
    ("NCC(Cn1ncn(-c2cccc(-c3ccc(N4CCOCC4)nc3)n2)c1=O)=C(F)F [Example 215, Trifluoroacetate]", 280),
    ("COCCNc1ncc(-c2cnc(-n3cnn(CC(CN)=C(F)F)c3=O)c(C)c2)cn1 [Example 222, Trifluoroacetate]", 4000),
    ("CCn1cc(-c2ccc(-c3ccc(Cn4cnn(CC(CN)=C(F)F)c4=O)s3)cc2)cn1 [Example 286, Trifluoroacetate]", 2480),
    ("CCn1cc(-c2ccc3sc(Cn4cnn(CC(CN)=C(F)F)c4=O)cc3c2)cn1 [Example 212, Trifluoroacetate]", 4320),
    ("Cc1cc(-c2cnc3[nH]ccc3c2)cnc1-n1cnn(CC(CN)=C(F)F)c1=O [Example 228, Trifluoroacetate]", 7700),
]

(a) Cn1cc(-c2csc(Cn3cnn(CC(CN)=C(F)F)c3=O)c2)ccc1=O [Example 190, Trifluoroacetate]
(b) Cc1cc(-c2cccc(-c3cc[nH]n3)c2)cnc1-n1cnn(CC(CN)=C(F)F)c1=O [Example 232, Trifluoroacetate]
Which item exceeds the other in IC50, a or b ? In your reply, give the label of the chosen option.
a

(1) NCC(Cn1ncn(Cc2cc(-c3cccc(-c4nc[nH]n4)c3)cs2)c1=O)=C(F)F [Example 196, Trifluoroacetate]
(2) CN1C(=O)CCc2cc(-c3ccccc3Cn3cnn(CC(CN)=C(F)F)c3=O)ccc21 [Example 284, trifluoroacetate]
(3) NCC(Cn1ncn(Cc2ccc(-c3cnn(S(=O)(=O)C4CC4)c3)s2)c1=O)=C(F)F [Example 294, Trifluoroacetate]
(4) Cc1cc(C#Cc2cnc3c(c2)NC(=O)CO3)cnc1-n1cnn(CC(CN)=C(F)F)c1=O [Example 247, Trifluoroacetate]
Hello, I need these entries ordered by IC50, highest reading first. Thanks! Ranked list of labels, please, in the requested order.
2, 4, 3, 1
